// reported pIC50 for each item listed
molecular target: GSK3b (GST-full length GSK3b) (Homo sapiens (Human), UniProt P49841); experiment: GSK3b TR-FRET kinase assay; type: biochemical; details: 1 nM GSK3b, 2 μM ATP, 30 minute preincubation; read-out: GSK3-B TR-FRET BIOCHEMICAL (TR-FRET); IC50
Sequence (P49841 whole entry): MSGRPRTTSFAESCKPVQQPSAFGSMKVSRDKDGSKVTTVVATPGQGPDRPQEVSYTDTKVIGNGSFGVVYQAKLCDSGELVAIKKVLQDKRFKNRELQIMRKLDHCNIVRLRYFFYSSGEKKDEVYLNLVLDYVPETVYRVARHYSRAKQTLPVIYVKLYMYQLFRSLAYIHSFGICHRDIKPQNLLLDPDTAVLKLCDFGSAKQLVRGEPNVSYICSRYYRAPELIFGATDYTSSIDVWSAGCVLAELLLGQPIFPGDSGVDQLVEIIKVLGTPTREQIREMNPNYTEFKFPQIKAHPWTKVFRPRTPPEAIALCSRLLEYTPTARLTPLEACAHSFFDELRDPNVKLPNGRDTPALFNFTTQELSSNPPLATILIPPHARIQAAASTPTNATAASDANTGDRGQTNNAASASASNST
pIC50: −log10 of the molar value.

Some solved cases for reference:
>>> meas_value("CC1(C)CC(=O)C2=C(C1)Nc1n[nH]cc1C21COC2(CN(C(=O)C3CC3)C2)C1 (stereo not drawn)")
"≥ 7.00"
>>> meas_value("Cc1ccccc1CC(=O)N1CC2(C1)CC1(CO2)C2=C(CC(C)(C)CC2=O)Nc2n[nH]cc21 (stereo not drawn)")
"≥ 7.00"
>>> meas_value("CC[C@@]1(c2cccc(C(F)(F)F)c2)C2=C(C[C@H](C)NC2=O)Nc2n[nH]cc21")
"< 5.30"
>>> meas_value("CC1(C)CC(=O)C2=C(C1)Nc1n[nH]cc1[C@@]21COC2(CN(C(=O)c3ccccc3)C2)C1")
"≥ 7.00"
>>> meas_value("CCC1(c2cccc(C(F)(F)F)c2)C2=C(CC(C)NC2=O)Nc2n[nH]cc21 (stereo not drawn) [Compound 911956]")
"6.00 to 7.00"

## Task Fill blank: measured pIC50 of the compound CC1(C)CC(=O)C2=C(C1)Nc1n[nH]cc1C21COC2(CN(C(=O)C3CCC(F)(F)C3)C2)C1 (stereo not drawn) is ____.
## Result 6.00 to 7.00

## Task // returns reported pIC50 for input CC(C)C1CC(C(=O)N2CC3(C2)CC2(CO3)C3=C(CC(C)(C)CC3=O)Nc3n[nH]cc32)C1 (stereo not drawn)
## Result ≥ 7.00

## Task # query: pIC50 of entry "CC1(C)CC(=O)C2=C(C1)Nc1n[nH]cc1[C@@]21CCOC2(CCOCC2)C1"
## Result 6.00 to 7.00

## Task I am curious: what pIC50 value has been reported for "C[C@@H]1C[C@@H]2C[C@]3(C[C@@H]2C1)C1=C(CC(C)(C)CC1=O)Nc1n[nH]cc13" ?
## Result ≥ 7.00

## Task Any idea what pIC50 was measured for "CC[C@@]1(c2cccc(C(F)(F)F)c2)C2=C(Nc3n[nH]cc31)[C@H](C)CN(C)C2=O" ?
## Result ≥ 7.00

## Task Could you tell me which pIC50 is on file for CCC1(c2ccccc2)C2=C(CSC(C)(C)C2=O)Nc2n[nH]cc21 (stereo not drawn) ?
## Result 5.30 to 6.00

## Task What value of pIC50 has been recorded for this entry: "CC1(C)CC(=O)C2=C(C1)Nc1n[nH]cc1C21CCC2(CC1)COC2"
## Result 6.00 to 7.00
